All figures here come from ChEMBL document CHEMBL1201862.

The listing below reports AC50 for compounds tested on Cytochrome P450 2D6 (Homo sapiens).
Sequence (P10635 whole entry): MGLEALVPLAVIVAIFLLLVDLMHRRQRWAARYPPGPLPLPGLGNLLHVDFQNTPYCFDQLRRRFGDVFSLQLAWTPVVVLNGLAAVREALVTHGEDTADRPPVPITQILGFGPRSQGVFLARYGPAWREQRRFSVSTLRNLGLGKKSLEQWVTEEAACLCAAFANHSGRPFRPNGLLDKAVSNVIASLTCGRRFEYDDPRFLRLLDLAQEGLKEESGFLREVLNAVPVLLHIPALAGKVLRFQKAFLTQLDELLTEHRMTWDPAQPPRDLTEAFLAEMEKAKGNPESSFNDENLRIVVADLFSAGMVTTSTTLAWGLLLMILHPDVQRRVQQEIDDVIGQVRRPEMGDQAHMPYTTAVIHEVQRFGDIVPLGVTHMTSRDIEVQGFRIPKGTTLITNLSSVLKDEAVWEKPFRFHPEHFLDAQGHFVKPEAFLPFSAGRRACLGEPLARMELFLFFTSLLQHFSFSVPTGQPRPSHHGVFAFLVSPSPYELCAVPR

Use these answered entries as a reference point.
>>> print(df.to_string())
                                   compound                  result
0  S=C1SCN(C2CCCCCCCCCCC2)CN1C1CCCCCCCCCCC1  3.16 µM (inconclusive)
1  CCCCCC1CCC(C(=O)NN=C(S)NCC)CC1 (centres undefined)  15.8 µM (inconclusive)
2  Cc1noc(C)c1C(=O)N1CCC2(CCCN(c3ccccc3)C2)CC1  12.6 µM (inconclusive)

Problem: Item `CC(=O)OCCCN1c2ccccc2Nc2nnc(-c3ccccc3)cc21` with Cytochrome P450 2D6 (Homo sapiens) - AC50?
Solution: 15.8 µM (inconclusive)

Problem: Test system Cytochrome P450 2D6 (Homo sapiens); read-out AC50; what value for `N#C[C@H](c1ccccc1)N1CCCN([C@@H](C#N)c2ccccc2)[C@H]1c1ccccc1O` ?
Solution: 5.01 µM (inconclusive)

Problem: Form field: AC50 recorded for `CCN1CCCCC(=N/O)/C(=N/O)CCCC1` with Cytochrome P450 2D6 (Homo sapiens) (enter value)
Solution: 1.58 µM (inconclusive)

Problem: Request - read-out AC50 | tested on Cytochrome P450 2D6 (Homo sapiens) | compound `O=C(c1csnn1)N1CCC2(CC1)CCN(c1ncccn1)CC2`
Solution: 39.8 µM (inconclusive)

Problem: Return AC50 measured with Cytochrome P450 2D6 (Homo sapiens) given this compound: CCCC[C@@H]1C[C@H]1C(NC(=O)c1ccco1)c1ccccc1 (some centres undefined)
Solution: 39.8 µM (inconclusive)

Problem: Lab note: need AC50 with Cytochrome P450 2D6 (Homo sapiens) for entry CCC/C=C(\CCC)C(NS(C)(=O)=O)c1ccccc1 (centres undefined) , please look it up.
Solution: 39.8 µM (inconclusive)

Problem: Form field: AC50 recorded for COc1c2occc2c(OC)c2c(=O)cc(C)oc12 [KHELLIN] with Cytochrome P450 2D6 (Homo sapiens) (enter value)
Solution: 10 µM (inconclusive)

Problem: Form field: AC50 recorded for `O=C1CN=C(Nc2ccc(Cl)cc2)N1c1ccccc1` with Cytochrome P450 2D6 (Homo sapiens) (enter value)
Solution: 20 µM (inconclusive)

Problem: Query AC50 on Cytochrome P450 2D6 (Homo sapiens) for `O[C@H](COc1ccccc1)CN1CCCCC1`
Solution: 5.01 µM (inconclusive)

Problem: // map C[C@H]1CN(C2CCC(C#N)(c3ccc(F)cc3)CC2)CC[C@@]1(C(=O)O)c1ccccc1 (some centres undefined) to recorded AC50 (system: Cytochrome P450 2D6 (Homo sapiens))
Solution: 10 µM (inconclusive)

Problem: Lab request: please report AC50 under test system Cytochrome P450 2D6 (Homo sapiens) for `COc1ccc(CNc2nc(-c3cccc(C#N)c3)nc3ccccc23)c(OC)c1`;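 further: CYP2D6 member of a cytochrome P450 panel assay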
Solution: 3.98 µM (inconclusive)

---

target: SUMO-activating enzyme (Homo sapiens, UniProt Q9UBT2); assay: blockers of UBC9-mediated SUMO conjugation – biochemical, AlphaScreen, SUMOylation inhibitor project, confirmation (AID 2018); format: functional
Sequence (Q9UBE0 whole entry): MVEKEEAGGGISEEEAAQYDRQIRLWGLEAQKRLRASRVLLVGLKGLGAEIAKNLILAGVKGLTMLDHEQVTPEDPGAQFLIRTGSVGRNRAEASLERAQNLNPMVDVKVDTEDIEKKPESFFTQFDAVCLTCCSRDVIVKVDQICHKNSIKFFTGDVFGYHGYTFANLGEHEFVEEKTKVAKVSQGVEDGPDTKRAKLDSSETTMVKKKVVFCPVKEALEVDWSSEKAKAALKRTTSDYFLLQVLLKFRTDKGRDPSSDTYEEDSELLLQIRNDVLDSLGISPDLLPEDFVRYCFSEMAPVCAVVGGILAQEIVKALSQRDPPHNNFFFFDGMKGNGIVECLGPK
Sequence (Q9UBT2 whole entry): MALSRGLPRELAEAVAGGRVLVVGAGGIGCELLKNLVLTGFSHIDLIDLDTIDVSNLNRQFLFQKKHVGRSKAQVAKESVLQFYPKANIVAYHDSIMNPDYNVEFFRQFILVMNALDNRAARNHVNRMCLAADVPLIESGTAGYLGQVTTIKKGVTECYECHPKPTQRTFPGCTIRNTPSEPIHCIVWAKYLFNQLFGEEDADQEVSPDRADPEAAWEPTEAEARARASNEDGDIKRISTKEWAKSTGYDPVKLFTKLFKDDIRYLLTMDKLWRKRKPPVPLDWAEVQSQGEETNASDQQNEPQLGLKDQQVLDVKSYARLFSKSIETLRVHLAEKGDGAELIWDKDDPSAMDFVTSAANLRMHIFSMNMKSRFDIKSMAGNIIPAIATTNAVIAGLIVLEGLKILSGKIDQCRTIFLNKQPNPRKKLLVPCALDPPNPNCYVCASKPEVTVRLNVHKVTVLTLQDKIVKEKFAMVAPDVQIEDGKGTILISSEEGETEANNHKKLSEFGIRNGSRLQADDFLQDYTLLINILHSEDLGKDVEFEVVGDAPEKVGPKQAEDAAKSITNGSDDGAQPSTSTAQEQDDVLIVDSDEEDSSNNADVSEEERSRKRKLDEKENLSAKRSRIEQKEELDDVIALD
The source made the active and inactive calls.
readout_label: IC50

Solved entries:
>>> print(df.to_string())
                                 cpd_smiles            result
0  CCCCn1c(NC(=O)c2ccc(Br)o2)c(S(=O)(=O)c2ccccc2)c2nc3ccccc3nc21   2.8 µM (active)
1  O=C1/C(=C/c2coc3ccc(O)cc3c2=O)SC(=S)N1c1ccccc1  39.4 µM (active)

Problem: Give SUMO-activating enzyme (Homo sapiens, UniProt Q9UBT2) IC50 for `Cc1ccc(C(=O)O)cc1-c1ccc(/C=C2\SC(=O)N(CC(=O)Nc3ccc4c(c3)OCO4)C2=O)o1`
Solution: 4.35 µM (active)

Problem: Find the measured IC50: item `Cc1cc(NC(=O)CSc2nc3cc(C(=O)NCCCOC(C)C)ccc3c(=O)n2Cc2ccco2)no1` , target or system SUMO-activating enzyme (Homo sapiens, UniProt Q9UBT2).
Solution: 38.3 µM (active)

Problem: Please provide the recorded IC50 for `Cc1ccc(NC(=O)COc2ccc(/C=C3/NC(=O)NC3=O)cc2)cc1` , tested on SUMO-activating enzyme (Homo sapiens, UniProt Q9UBT2).
Solution: 19.2 µM (active)

Problem: Enter reported IC50 observed with SUMO-activating enzyme (Homo sapiens, UniProt Q9UBT2) for `Cc1ccccc1NC(=O)Cn1c(O)c(N=NC(=O)c2ccccc2O)c2ccccc21`
Solution: 8.06 µM (active)
